selectivity ratio values for the compounds below.
experiment: Selectivity index, ratio of CC50 for African green monkey Vero cells to MIC for Antitubercular activity against Mycobacterium tuberculosis H37Rv; assay type: toxicity; details: read-out: Selectivity Index

COC(=O)c1cc(-c2cccc(NC(=O)c3ccc(/C=C/C(=O)c4cccc(OC)c4)cc3)c2)on1 | > 50

Please give the documented selectivity ratio of COC(=O)c1cc(-c2cccc(NC(=O)c3ccc(/C=C/C(=O)c4cccc([N+](=O)[O-])c4)cc3)c2)on1
> 20

Hello, please tell me recorded selectivity ratio for this one: COC(=O)c1cc(-c2cccc(NC(=O)c3ccc(/C=C/C(=O)c4ccccc4)cc3)c2)on1
> 50

Tell us which selectivity ratio value is on record for COC(=O)c1cc(-c2cccc(NC(=O)c3ccc(/C=C/C(=O)c4cccc(Cl)c4)cc3)c2)on1
> 10

Supply reported selectivity ratio belonging to this compound: CCCOc1ccc(C(=O)/C=C/c2ccc(C(=O)O)cc2)cc1
< 10

====

Measured CC50 at 72 h of individual entries
experiment: Cytotoxicity against African green monkey vero cells assessed as reduction in cell viability measured after 72 hrs by MTT assay; assay type: cell-based; conditions: chlorocebus sabaeus

COC(=O)c1cc(-c2cccc(NC(=O)c3ccc(/C=C/C(=O)c4cc(F)ccc4F)cc3)c2)on1 | > 40 µg/mL

Give reported CC50 at 72 h value for COC(=O)c1cc(-c2cccc(NC(=O)c3ccc(/C=C/C(=O)c4ccccc4Br)cc3)c2)on1
> 40 µg/mL

Name the recorded CC50 at 72 h of the compound listed here: COC(=O)c1cc(-c2cccc(NC(=O)c3ccc(/C=C/C(=O)c4ccc(Cl)cc4Cl)cc3)c2)on1
> 40 µg/mL
